# runParameters: 464 K; Liquid; Rate of evaporation
Parameter: vapor or sublimation pressure. Scope: all listed entries.
readoutKind: vapor or sublimation pressure (kPa)

>>> recordedvalue("CCCCC(=O)Oc1cc(C)cc(OC(=O)CCCC)c1 [3-methyl-5-(pentanoyloxy)phenyl pentanoate]")
0.708
>>> recordedvalue("Cc1cc(OCC(C)C)cc(OCC(C)C)c1 [1-methyl-3,5-bis(2-methylpropoxy)benzene]")
5.086
>>> recordedvalue("Cc1cc(OC(=O)C(C)(C)C)cc(OC(=O)C(C)(C)C)c1")
2.485
>>> recordedvalue("Cc1cc(OC(C)C)cc(OC(C)C)c1 [1-methyl-3,5-bis(propan-2-yloxy)benzene]")
13.49

Entry source: the NIST ThermoML archive (doi:10.1016/j.tca.2014.07.001)
